# System: OVCAR-8 ovarian
# assay protocol: NCI tumour cell line growth inhibition, 48 h

molecule | TGI
CC(CN(CP(=O)([O-])[O-])CP(=O)([O-])[O-])N(CP(=O)([O-])[O-])CP(=O)([O-])[O-].N[C@@H]1CCCC[C@@H]1N.[Pt+2] (stereo not drawn) | > 100 µM
Cc1cc2c(=O)cc(-c3ccc(Cl)cc3)oc2c(C(=O)O)c1C | > 100 µM
CCP(=O)(CC)C(Cl)(Cl)C(=O)NC | > 100 µM

###

# Tested on: MOLT-4 leukemia
# assay protocol: NCI tumour cell line growth inhibition, 48 h
recorded metric: TGI

compound | result
COC(=O)C1Cc2c([nH]c3ccccc23)-c2[nH]c3ccccc3c2CC(NC(C)=O)C(=O)NCC(=O)N1 (stereo not drawn) | > 100 µM
COc1ccc(NS(=O)C2CCCCC2)cc1 (stereo not drawn) | > 100 µM
COc1cc(/C=C/C(=O)c2ccc(Nc3nc(Nc4ccc(F)cc4)nc(Nc4ccc(F)cc4)n3)cc2)cc(OC)c1OC | > 100 µM
COC(=O)c1c(C)nc(C)c(N=O)c1-c1ccccc1C(F)(F)F | > 100 µM
N#CC(C(=O)c1ccccc1F)c1nc2cc(C(F)(F)F)ccc2s1 (stereo not drawn) | > 100 µM
CC(O)CN(CCN(CC(C)O)CC(C)O)CC(C)O.O=[N+]([O-])O.[Cu+2] (stereo not drawn) | > 100 µM
NCCOc1ccccn1 | > 100 µM
COc1cc2c(/C=C3\C(=O)Nc4ccc(Br)cc43)c(Cl)n(C)c2cc1C | > 27.5 µM
C[N+](C)(C)CCCCCc1c2nc(c(CCCCC[N+](C)(C)C)c3ccc([nH]3)c(CCCCC[N+](C)(C)C)c3ccc([nH]3)c(CCCCC[N+](C)(C)C)c3nc1C=C3)C=C2 | > 100 µM
N#C/C(=C/N1CCN(C(=O)c2ccco2)C1=S)C(N)=O | > 100 µM
CC(C)(C)c1ccc(-c2nnc(SCc3ccc(Cl)cc3)n2-c2cccc(C(F)(F)F)c2)cc1 | > 67.1 µM
CCCCCCc1cc(C=O)sc1-c1ccc(-c2sc(-c3ccc(-c4ccc(-c5cc(CCCCCC)c(-c6ccc(-c7sc(C=O)cc7CCCCCC)s6)s5)s4)s3)cc2CCCCCC)s1 | > 100 µM
CCOC(=O)Nc1ccc(S(=O)(=O)Nc2ccc(Br)cc2)cc1 | > 100 µM
NS(=O)(=O)c1ccc(CNC(=S)NC(=O)Nc2ccc(Cl)c(Cl)c2)cc1 | 40.2 µM
CCOc1ccc2c(c1)/C(=C\C=C\C1CC(C)C3CC(OCC)CCC3N1CC)CC(C)N2CC (stereo not drawn) | 4.14 µM
CCOC(=O)c1c(NC(=S)NCc2ccccc2)sc2c1CCN(C)C2 | 51 µM
Cc1nc2cc(O)c(O)cc2cc1Oc1ccc(NC(=O)Nc2ccc(Cl)c(Cl)c2)cc1 | > 32.5 µM
COc1ccc(N(C(=O)OC(C)(C)C)[C@@H]2C(C)=C[C@H]([S@@](=O)c3ccc(C)cc3)[C@@H]3C(=O)N(C)C(=O)[C@@H]32)cc1 | 94.6 µM
